# Tested on: A-375
# TEST SUMMARY: Antimitotic activity against human A375 cells by [3H]thymidine incorporation assay
# Type: functional
# CONDITION INFO: A-375, 24 h, read-out: ID50 (the source's name)
QUANTITY: pIC50
Scale: pIC50 equals -log10([C]), with [C] in mol/L.

Quote pIC50 reported for `CCCCCCCCCCCCCCCCO[C@H]1O[C@H](COCC(CO)(CO)COS(=O)(=O)O)[C@@H](O)[C@H](O)[C@H]1NC(=O)CCCC` please.
5.64

Quote pIC50 reported for CCCCCCCCCCCCCCCCO[C@H]1O[C@H](COCC(O)CO)[C@@H](O)[C@H](O)[C@H]1NC(=O)CCCCCCCCCCCCCCC (mixture of isomers) please.
5.03

Quote pIC50 reported for `CCCCCCCCCCCCCCCCO[C@H]1O[C@H](COC[C@@H](O)CO)[C@@H](O)[C@H](O)[C@H]1NC(=O)CCCC` please.
5.47

---

# System: A-375
# TEST SUMMARY: Antimitotic activity against human A375 cells by [3H]thymidine incorporation assay
# Assay type: functional
# CONDITION INFO: A-375, 24 h, read-out: ID50 (the source's name)
QUANTITY: IC50 (µM)
Respond numerically; units are µM and should not be typed.

Quote IC50 reported for `CCCCCCCCCCCCCCCCO[C@H]1O[C@H](COCC(CO)(CO)CO)[C@@H](O)[C@H](O)[C@H]1NC(=O)CCCC` please.
17

Quote IC50 reported for `CCCCCCCC/C=C\CCCCCCCC(=O)N[C@H]1[C@@H](OCCCCCCCC)O[C@H](COCC(CO)(CO)CO)[C@@H](O)[C@@H]1O` please.
13.3

---

# Tested on: C6
# TEST SUMMARY: Antimitotic activity against rat C6 cells by [3H]thymidine incorporation assay
# Type: functional
# CONDITION INFO: C6, 24 h, read-out: ID50 (the source's name)
Would you mind telling me the reported pIC50 of each entry?
Scale: pIC50 equals -log10([C]), with [C] in mol/L.

Quote pIC50 reported for `CCCCCCCCCCCCCCCCO[C@H]1O[C@H](COCC(CO)(CO)CO)[C@@H](O)[C@H](O)[C@H]1NC(=O)CCCC` please.
4.74

Quote pIC50 reported for `CCCCCCCC/C=C\CCCCCCCC(=O)N[C@H]1[C@@H](OCCCCCCCC)O[C@H](COCC(CO)(CO)CO)[C@@H](O)[C@@H]1O` please.
4.92

Quote pIC50 reported for `CCCCCCCC/C=C\CCCCCCCCO[C@H]1O[C@H](CO)[C@@H](O)[C@H](OS(=O)(=O)O)[C@H]1NC(C)=O` please.
4.91

Quote pIC50 reported for `CCCCCCCC/C=C\CCCCCCCC(=O)N[C@H]1[C@@H](OCCCCCCCC)O[C@H](CO)[C@@H](O)[C@@H]1O` please.
4.92

---

# Tested on: A-375
# TEST SUMMARY: Antimitotic activity against human A375 cells by [3H]thymidine incorporation assay
# Type: functional
# CONDITION INFO: A-375, 24 h, read-out: ID50 (the source's name)
QUANTITY: IC50

Give IC50 only, for `C=CCCC(=O)N[C@H]1[C@@H](OCCCCCCCCCCCCCCCC)O[C@H](CO)[C@@H](O)[C@@H]1O` , using A-375 data.
> 50 µM

Give IC50 only, for `CC(=O)N[C@H]1[C@@H](OCc2ccccc2)O[C@H](CO)[C@@H](O)[C@@H]1O` , using A-375 data.
> 50 µM

Give IC50 only, for `C=CCCC(=O)N[C@H]1[C@@H](OCCc2ccccc2)O[C@H](CO)[C@@H](O)[C@@H]1O` , using A-375 data.
> 50 µM

Give IC50 only, for CCCCC(=O)N[C@H]1[C@@H](OCCc2ccccc2)O[C@H](COCC(O)CO)[C@@H](O)[C@@H]1O (mixture of isomers) , using A-375 data.
> 50 µM

Give IC50 only, for `C=CCCC(=O)N[C@H]1[C@@H](OCCc2ccccc2)O[C@H](COS(=O)(=O)O)[C@@H](O)[C@@H]1O` , using A-375 data.
> 50 µM

The reported measurements were obtained from ChEMBL document CHEMBL1139840.
